Biological target: T1, human NKp46 (human, UniProt O76036 22-304)
T1 construct: also called CD335; NCR1
T1 sequence (O76036 22-304 Q82K): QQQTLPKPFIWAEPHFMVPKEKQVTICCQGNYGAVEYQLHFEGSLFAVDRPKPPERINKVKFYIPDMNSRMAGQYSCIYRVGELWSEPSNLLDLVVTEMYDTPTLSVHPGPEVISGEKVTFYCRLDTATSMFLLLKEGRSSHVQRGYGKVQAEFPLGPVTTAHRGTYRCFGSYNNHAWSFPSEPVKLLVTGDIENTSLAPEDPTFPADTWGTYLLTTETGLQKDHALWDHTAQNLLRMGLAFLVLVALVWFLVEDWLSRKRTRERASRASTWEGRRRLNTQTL
Experiment: flow cytometry, HEK293F cells transfected with human NKp46
Method: Binding of NKp46-binding polypeptides formatted as VHH-Fc fusion proteins was assessed by flow cytometry. An IgG1-Fc lacking a hinge, or a homodimeric Fc (FIG. 1I-1J) was used (the Fc lacking a hinge is annotated as Fc*). […] After one additional wash with 150 μL of FACS buffer, bound antibody was detected by flow cytometry. […] NKp46 transfected cells were gated on as GFP positive, and polypeptide binding was measured as median fluorescence at 647 nm.
Bmax (MFI) overview
Numbers only here, please. The scale is MFI.

Worked examples follow.
binder: NKp46-hz5D7v12-Fc* (Fc fusion, VHH-Fc fusion with an IgG1 Fc lacking a hinge (Fc*)) EVQLVESGGGEVQPGGSLRLSCAASGRTFASAAMGWFRQAPGKEREFVAAISRSDDTYYAESVKGRFTISRDNAKNTVYLQMSSLRAEDTAVYYCAAVVPTYGSNIYVHSAAYNYWGQGTLVTVKPGGGGPSVFLFPPKPKDTLMISRTPEVTCVVVDVSHEDPEVKFNWYVDGVEVHNAKTKPREEQYNSTYRVVSVLTVLHQDWLNGKEYKCKVSNKALPAPIEKTISKAKGQPREPQVYTLPPSRDELTKNQVSLTCLVKGFYPSDIAVEWESNGQPENNYKTTPPVLDSDGSFFLYSKLTVDKSRWQQGNVFSCSVMHEALHNHYTQKSLSLSPG
numeric.result: 149000
//
binder: NKp46-hz5D7v14-Fc* (Fc fusion, VHH-Fc fusion with an IgG1 Fc lacking a hinge (Fc*)) EVQLVESGGGEVQPGGSLRLSCAASGRTFASAAMGWFRQAPGKEREFVAAISRSDDTYYAESVKGRFTISRDNAKNTVYLQMSSLRAEDTAVYYCAAVVPTYGSSIYVHSAAYNYWGQGTLVTVKPGGGGPSVFLFPPKPKDTLMISRTPEVTCVVVDVSHEDPEVKFNWYVDGVEVHNAKTKPREEQYNSTYRVVSVLTVLHQDWLNGKEYKCKVSNKALPAPIEKTISKAKGQPREPQVYTLPPSRDELTKNQVSLTCLVKGFYPSDIAVEWESNGQPENNYKTTPPVLDSDGSFFLYSKLTVDKSRWQQGNVFSCSVMHEALHNHYTQKSLSLSPG
numeric.result: 138000

In plain terms, NKp46-hz5D7v3-Fc* (Fc fusion, VHH-Fc fusion with an IgG1 Fc lacking a hinge (Fc*); also called NKp46-bz5D7v3-Fc*) EVQLVESGGGEVQPGGSLRLSCAASGRTFASAAMGWFRQAPGKEREFVAAISRSDDTYYAESVKGRFTISRDNAKNTVYLQMSSLRAEDTAVYYCAAVVPTYGNNIYVHSAAYNYWGQGTLVTVKPGGGGPSVFLFPPKPKDTLMISRTPEVTCVVVDVSHEDPEVKFNWYVDGVEVHNAKTKPREEQYNSTYRVVSVLTVLHQDWLNGKEYKCKVSNKALPAPIEKTISKAKGQPREPQVYTLPPSRDELTKNQVSLTCLVKGFYPSDIAVEWESNGQPENNYKTTPPVLDSDGSFFLYSKLTVDKSRWQQGNVFSCSVMHEALHNHYTQKSLSLSPG has a documented Bmax (MFI) of 149000
